Every entry's value here was drawn from patent US20250027068.

Listed below: Enzyme Activity Endpoint Assay: IgG values for each entry.
MEASURED_ON: pooled human IgG
Write the answer as a number in ng/µL, unit excluded.

# example entries with known answers
{"columns": ["PROTEIN", "UNIT_TAG", "REPORTED_RESULT"],
 "data": [
  ["PRT-15 (protein) MANQEIRYSEVTPYTITSVWTKGVTPPTNFTQGEDVFHAPYVANQGWYDITKTFNGKDDLLCGAATAGNMLHWWFDQNKDEIERYLKEHPEKQKINFNGEQMFDVKEAIDTKDSQTDSKLFEYFKDKAFPYLSTKHLGVFPDHVIDMFINGYRLSLTNHGPTPVKRGSKDPRGGIFDAVFTRGDQSKLLTSRHDFKEKNLNEISDLIKQELTEGKALGLSHTYANVRINHVINLWGADFNSNGNLKAIYVTDSDSNASIGMKKYFVGVNKAGKVAISAKEIKGDNIGAQVLGLFTLSTGQDIWEQTN", "ng/µL", 18],
  ["PRT-20 (protein) MANQEIRYSEATPYHITSVWTKGVTPPANFTQGEDVFHAPYVPNQGWYDITKTFNGKDDLLCGAATAGNMLHWWFDQNKDQIERYLKEHPEKQKINFNGEQMFDVKEAIDTKDSQTDSKLFNYFKEKAFPYLSTKHLGVFPDHVLDMFINGYRLSLTNHGPTPVKEQSKDPRGGIFDAVFTRGDQSTLLTSRHDFKEKTLKEISDLIKKELQEGKALGISHTYANVRINHVINLWGADFNSEGNLEAIYVTDSDSNASIGMKKYYVGVNSAGKVAISAKEIEDDNIGAQVLGLFTLSTGKDIWEQTN", "ng/µL", 15],
  ["PRT-52 (protein) MANQEIRYSEVTPYHVTSVWTKGVTPPANFTQGEDVFHAPYVANQGWYDINKTFNGGDDLLCGAATAGNMLHWWFDQNKEYIDRYLKEHPEKQKINFNGEQMFDVKEAIDTKNSQTDSKLFEYFKEKAFPYLSTKHLGVFPDLVIDMFINGYRLSLTNHGPTPVKEGSKDPRGGFFDAVFTRGDQSKLLTSRHDFKEKNYNEISDLIKKELKEGKALGLSHTYANVRINHVINLWGADFDSNGNLKAIYVTDSDSNASVGMKKYFVGVNSAGKVAISAKEIKEDNIGAQVLGLFTLSTGQDSWNQTN", "ng/µL", 122]
]}

Now examine the next entry.
# get_value(readout='Enzyme Activity Endpoint Assay: IgG', item= PRT-6 (protein) MANQEIRYSEVTPYHVTSVWTKGVTPPANFTQGEDVFHAPYVANQGWYDITKTFNGKDDLLCGAATAGNMLHWWFDQNKEQIERYLKEHPEKQKINFNGEQMFDVKEAIDTKNSQLDSKLFEYFKEKAFPYLSTKHLGVFPDHVIDMFINGYRLSLTNHGPTPVKEGSKDPRGGIFDAVFTRGDQSKLLTSRHDFKEKNLKEISDLIKKELTEGKALGLSHTYANVRINHVINLWGADFDSNGNLKAIYVTDSDSNASIGMKKYFVGVNSAGKVAISAKEIEGDNIGAQVLGLFTLSTGQDIWNQTN )
16
